target: Integrin alpha-V/beta-3 (Homo sapiens) (UniProt P05106+P06756); assay: Inhibition of human alphaVbeta3 receptor expressed in african green monkey Vero E6 cells assessed as inhibition of SNV infection in cells at 1 uM by immunofluorescent assay; format: cell-based
Where a SMILES comes first, the peptide text is derived from it. The star is where a group is joined. Tos = Cc1ccc(S(=O)(=O)*)cc1
Classify by inhibition. Ranges: low = under 7%, moderate = from 7% up to 10%, high = 10% and over

Please indicate the class for COc1ccccc1CNC(=O)C1CCCN(c2ncnc3onc(-c4ccc(F)cc4)c23)C1 (configuration not stated) based on its inhibition.
high

Now try O=C(CSc1nc2nccnc2c(=O)n1Cc1ccc2c(c1)OCO2)NCCc1ccccc1 .
moderate

Now try COc1ccc(OC)c(CNC(=O)C2CCCN(c3ncnc4onc(-c5ccc(F)cc5)c34)C2)c1 (configuration not stated) .
high

Now try O=C(NCCc1ccc(Cl)cc1)C1CCCN(c2ncnc3onc(-c4ccc(F)cc4)c23)C1 (configuration not stated) .
high

Now try O=C(CSc1nc2ccccc2c(=O)n1Cc1ccc2c(c1)OCO2)NCc1ccco1 .
high

Now try O=C(N/N=C1\C(=O)N(CN(Cc2ccccc2)Cc2ccccc2)c2ccccc21)c1cccs1 .
low

Now try O=C(NCc1cccs1)C(Cc1ccccc1)NS(=O)(=O)c1ccc2nsnc2c1 (racemic) .
high

Now try COc1ccc(CCNC(=O)C(Cc2ccccc2)NS(=O)(=O)c2ccc(Cl)cc2)cc1OC (configuration not stated) .
high

Now try CCOC(=O)N1CCC(NC(=O)C(Cc2ccccc2)NS(=O)(=O)c2cccc3nsnc23)CC1 (configuration not stated) .
low

Now try O=C(CC(NS(=O)(=O)c1ccc(Cl)cc1)c1ccco1)NCc1cccnc1 (configuration not stated) .
moderate

Now try COc1ccc(/C=N/NC(=O)c2sc3ccccc3c2Cl)cc1CSc1ccccn1 .
low

Now try O=c1c(/C=N/Cc2ccco2)c(CSc2ccc(Cl)cc2)[nH]n1-c1nc2ccccc2s1 .
high

Now try CN1CCN(c2ccccc2NC(=O)C(Cc2ccccc2)NS(=O)(=O)c2cccc3nsnc23)CC1 (configuration not stated) .
moderate

Now try O=C(NCc1ccc2c(c1)OCO2)C(Cc1ccccc1)NS(=O)(=O)c1cccc2cccnc12 (racemic) .
high

Now try COc1ccc(OC)c(CNC(=O)C2CCCN(c3ncnc4onc(C)c34)C2)c1 (configuration not stated) .
low

Now try Cc1ccc(C)c(NC(=O)C(Cc2ccccc2)NS(=O)(=O)c2cccc3cccnc23)c1 (configuration not stated) .
low

Now try O=S(=O)(c1cccc(SCc2ccccc2)c1)c1cccc(SCc2ccccc2)c1 .
high

Now try CCCCN(CC)CCCNC(=O)C1CCCN(c2ncnc3onc(C)c23)C1 (configuration not stated) .
low

Now try O=C(C(Cc1ccccc1)NS(=O)(=O)c1ccc2nsnc2c1)N1CCC2(CC1)OCCO2 (configuration not stated) .
low

Now try COc1ccc(Cl)cc1NC(=O)C(Cc1ccccc1)NS(=O)(=O)c1cccc2cccnc12 (configuration not stated) .
moderate

Now try O=C(NCc1cccs1)C(Cc1ccccc1)NS(=O)(=O)c1cccc2cccnc12 (configuration not stated) .
high

Now try Cc1ccc(S(=O)(=O)NC(Cc2ccccc2)C(=O)NC(CCCNC(=N)N)C(=O)O)cc1 (stereo not drawn) (Tos-Phe-Arg-OH; configuration not given here) .
low

Now try O=C(NCC1CCCO1)C(Cc1ccccc1)NS(=O)(=O)c1cccc2nsnc12 (configuration not stated) .
low

Now try Cc1nnc(SCC(=O)NCCc2cccs2)c2nn(-c3ccccc3)c(C)c12 .
high

Now try O=C(NCc1ccccc1)C(Cc1ccccc1)NS(=O)(=O)c1cccc2cccnc12 (configuration not stated) .
high

Now try O=C(Cn1c(=O)n(Cc2ccc3c(c2)OCO3)c(=O)c2ccccc21)NCCc1ccccc1 .
high

Now try COc1ccc([N+](=O)[O-])cc1NC(=O)C(Cc1ccccc1)NS(=O)(=O)c1cccc2nsnc12 (configuration not stated) .
moderate

Now try Cc1ccc(Cl)cc1NC(=O)C(Cc1ccccc1)NS(=O)(=O)c1cccc2nsnc12 (configuration not stated) .
low

Now try O=C(CCn1c(=O)c2ccccc2n(Cc2cc(=O)n3ccccc3n2)c1=O)NCc1ccco1 .
high

Now try O=C(CSc1nc2ccccc2n1S(=O)(=O)c1ccc(Cl)cc1)NCCc1ccccc1 .
high

###

target: Integrin alpha-V/beta-3 (Homo sapiens) (UniProt P05106+P06756); experiment: Inhibition of human alphaVbeta3 receptor expressed in african green monkey Vero E6 cells assessed as inhibition of SNV infection in cells at 1 uM by immunofluorescent assay; type: cell-based
Recorded metric: inhibition
Show the value, then the unit it is measured in.

Which inhibition value belongs to O=C(NCc1ccccc1Cl)C(Cc1ccccc1)NS(=O)(=O)c1cccc2nsnc12 (stereo unspecified) ?
0%

Now try O=C(NCc1ccccc1)C(Cc1ccccc1)NS(=O)(=O)c1cccc2nsnc12 (stereo unspecified) .
3.2%

Now try COc1ccc(C(CC(=O)NCCN2CCOCC2)NS(=O)(=O)c2ccc(Cl)cc2)cc1 (stereo unspecified) .
0%

Now try O=S(=O)(c1cccc2cccnc12)N1CCN(Cc2ccc3c(c2)OCO3)CC1 .
0%

Now try Cc1cccc(OCC(=O)N/N=C/c2ccc(OC(=O)/C=C/c3ccco3)cc2)c1 .
8%

Now try O=C(NCCC1=CCCCC1)C(Cc1ccccc1)NS(=O)(=O)c1cccc2nsnc12 (stereo unspecified) .
0%
